src = patent US20140178935A1

kon by entry:
# test_target: T1, recombinant human HGF (R&D Systems, Catalog No. 294-HGN-025) (human, UniProt P14210 32-728)
# T1 construct: Mature HGF is a disulfide-linked heterodimer of alpha and beta chain cut from one precursor; also called rhHGF (R&D Systems); rhHGF
# T1 sequence (P14210 32-728 limits assumed): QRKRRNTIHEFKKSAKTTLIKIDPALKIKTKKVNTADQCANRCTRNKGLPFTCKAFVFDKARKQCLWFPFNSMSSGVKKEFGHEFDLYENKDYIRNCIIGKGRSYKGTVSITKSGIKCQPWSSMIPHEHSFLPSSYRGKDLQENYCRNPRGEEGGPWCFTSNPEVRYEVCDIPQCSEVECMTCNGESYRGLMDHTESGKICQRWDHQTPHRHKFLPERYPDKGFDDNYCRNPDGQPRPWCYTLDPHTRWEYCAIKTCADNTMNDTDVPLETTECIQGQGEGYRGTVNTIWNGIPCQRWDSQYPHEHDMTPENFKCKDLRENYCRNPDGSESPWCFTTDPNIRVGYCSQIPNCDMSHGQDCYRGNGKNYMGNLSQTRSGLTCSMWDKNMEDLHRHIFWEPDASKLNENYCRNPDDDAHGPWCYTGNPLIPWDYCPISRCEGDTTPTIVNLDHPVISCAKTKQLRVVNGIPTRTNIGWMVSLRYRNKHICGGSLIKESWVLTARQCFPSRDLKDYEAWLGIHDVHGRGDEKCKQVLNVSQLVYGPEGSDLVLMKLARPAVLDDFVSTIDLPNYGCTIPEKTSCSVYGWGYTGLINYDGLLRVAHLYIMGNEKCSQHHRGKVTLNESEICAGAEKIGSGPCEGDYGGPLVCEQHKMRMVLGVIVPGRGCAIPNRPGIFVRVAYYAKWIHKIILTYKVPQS
# run_description: SPR, captured antibody, HGF injected, 25 C
measurement_kind: kon (M⁻¹ s⁻¹)

# binder, test_result
records = [
    ("HE2B8-4 (LRMR2B8HC + IgG1 constant region G1m(3) allotype allele 1, plus LRMR2B8LC + Kappa constant region Km(3) allotype allele 1) (antibody, V domains shown, Human Engineered 2B8 variant, human IgG1 kappa, made in HEK293E cells) VH: QVQLVQPGAEVKKPGTSVKLSCKASGYTFTTYWMHWVRQAPGQGLEWIGEINPTNGHTNYNQKFQGRATLTVDKSTSTAYMELSSLRSEDTAVYYCARNYVGSIFDYWGQGTLLTVSS VL: DIVMTQSPDSLAMSLGERVTLNCKASENVVSYVSWYQQKPGQSPKLLIYGASNRESGVPDRFSGSGSATDFTLTISSVQAEDVADYHCGQSYNYPYTFGQGTKLEIKR", "1.7e+06"),
    ("HE2B8-1 (LR2B8HC + IgG1 constant region G1m(3) allotype allele 1, plus LR2B8LC + Kappa constant region Km(3) allotype allele 1) (antibody, V domains shown, Human Engineered 2B8 variant, human IgG1 kappa, made in HEK293E cells) VH: QVQLVQPGAEVVKPGTSVKLSCKASGYTFTTYWMHWVNQAPGQGLEWIGEINPTNGHTNYNEKFKGKATLTVDKSTSTAYMELSSLRSEDTAVYYCARNYVGSIFDYWGQGTLLTVSS VL: DIVMTQSPDSMAMSVGERVTLNCKASENVVSYVSWYQQKPGQSPKLLIYGASNRNTGVPDRFSGSGSATDFTLTISSVQAEDVADYHCGQSYNYPYTFGQGTKLEIKR", "2.2e+06"),
    ("HE2B8-3 (LRMR2B8HC + IgG1 constant region G1m(3) allotype allele 1, plus LR2B8LC + Kappa constant region Km(3) allotype allele 1) (antibody, V domains shown, Human Engineered 2B8 variant, human IgG1 kappa, made in HEK293E cells) VH: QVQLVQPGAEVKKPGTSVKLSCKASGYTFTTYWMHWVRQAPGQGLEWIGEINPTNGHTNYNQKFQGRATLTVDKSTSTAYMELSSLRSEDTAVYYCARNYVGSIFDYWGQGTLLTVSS VL: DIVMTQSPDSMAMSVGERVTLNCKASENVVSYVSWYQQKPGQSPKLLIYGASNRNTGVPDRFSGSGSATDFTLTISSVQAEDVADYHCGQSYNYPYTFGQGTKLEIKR", "2e+06"),
    ("HE2B8-2 (LR2B8HC + IgG1 constant region G1m(3) allotype allele 1, plus LRMR2B8LC + Kappa constant region Km(3) allotype allele 1) (antibody, V domains shown, Human Engineered 2B8 variant, human IgG1 kappa, made in HEK293E cells) VH: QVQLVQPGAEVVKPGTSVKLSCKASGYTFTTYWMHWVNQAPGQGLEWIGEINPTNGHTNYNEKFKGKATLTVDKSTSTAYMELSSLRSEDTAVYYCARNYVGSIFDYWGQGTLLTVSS VL: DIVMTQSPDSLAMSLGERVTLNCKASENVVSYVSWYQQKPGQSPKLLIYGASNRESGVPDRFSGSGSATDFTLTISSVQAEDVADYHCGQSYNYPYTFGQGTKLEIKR", "1.8e+06"),
]
